# test.description: Pharmacokinetic evaluation IV bolus and oral (bioavailability) in ICR mice
# Format: in vivo
# experimental.conditions: mouse, plasma, IV 5 mg/kg and PO 25 mg/kg, read-out: Bioavailability (% F)
observation.type: bioavailability (%)
One number for each entry, in %.

Examples with their reported bioavailability follow.
| compound | unit.abbrev | bioavailability |
| --- | --- | --- |
| Cn1ccnc1CNC(=O)c1c(=O)c2cc(F)c(N3CCOCC3)nc2n2c1sc1ccccc12 | % | 15.8 |
| CN1CCCC1CCNC(=O)c1c(=O)c2cc(F)c(N3CCOCC3)nc2n2c1sc1ccccc12 (stereo not drawn) | % | 22.4 |

API: the following record is the query input.
The reported value for CN1CCN(C(=O)c2c(=O)c3cc(F)c(N4CCOCC4)nc3n3c2sc2ccccc23)CC1 in terms of bioavailability is 30.3

###

# test.description: Cassette dosing oral pharmacokinetics in ICR mice
# Type: in vivo
# experimental.conditions: ICR (IcrTac:ICR), mouse; cassette oral dose 25 mg/kg, female ICR mice, plasma, 0-8 h, none in table
Kindly supply the reported log10 AUC(0-t) values for the records listed here.
Use the decimal logarithm of AUC(0-t) (ng·h/mL).

Working through the 3 molecules below one at a time, give log10 AUC(0-t) for each.
1. CN1CCCC1CNC(=O)c1c(=O)c2cc(F)c(N3CCOCC3)nc2n2c1sc1ccccc12 (stereo not shown)
2. O=C(NCCN1CCOCC1)c1c(=O)c2ccc(N3CCOCC3)nc2n2c1sc1ccccc12
3. O=C(NCCNCC(F)(F)F)c1c(=O)c2ccc(N3CCOCC3)nc2n2c1sc1ccccc12

output:
1: 3.60; 2: 3.47; 3: 3.98

Give log10 AUC(0-t) for each of the items listed below.
1. Cn1c2ccccc2n2c3nc(N4CCOCC4)ccc3c(=O)c(C(=O)NCCN3CCCC3)c12
2. CN1CCCCC1CNC(=O)c1c(=O)c2ccc(N3CCOCC3)nc2n2c1sc1ccccc12 (stereo not shown)
3. Cn1ccnc1CNC(=O)c1c(=O)c2cc(F)c(N3CCOCC3)nc2n2c1sc1ccccc12
4. O=C(NCCN1CC=CC1)c1c(=O)c2ccc(N3CCOCC3)nc2n2c1sc1ccccc12
5. CN1CCN(c2nc3c(cc2F)c(=O)c(C(=O)NCc2cn(C)cn2)c2sc4ccccc4n23)CC1
6. CN1CCCCC1CNc1ccc2c(=O)c(C(=O)NCc3ccncc3)c3sc4ccccc4n3c2n1 (stereo not shown)

output:
3.10
3.02
4.31
3.90
4.65
2.90

For each entry beneath this line, provide reported log10 AUC(0-t).
1. O=C(NCCNCC1CCCO1)c1c(=O)c2ccc(N3CCOCC3)nc2n2c1sc1ccccc12 (stereo not shown)
2. CN1CCCC1CCNC(=O)c1cn2c3c(c(N4CCOCC4)c(F)cc3c1=O)Oc1ccccc1-2 (stereo not shown)
3. O=C(NCCNCCF)c1c(=O)c2cc(F)c(N3CCOCC3)nc2n2c1sc1ccccc12
4. O=C(NCCN1CC=CC1)c1c(=O)c2cc(F)c(N3CCOCC3)nc2n2c1sc1ccccc12
5. CN1CCCN(C(=O)c2c(=O)c3cc(F)c(N4CCOCC4)nc3n3c2sc2ccccc23)CC1

output:
3.28
3.16
3.35
3.30
3.63

###

# test.description: Cassette dosing oral pharmacokinetics in ICR mice
# Type: in vivo
# experimental.conditions: ICR (IcrTac:ICR), mouse; cassette oral dose 25 mg/kg, female ICR mice, plasma, 0-8 h, none in table
Answer each item with its documented AUC(0-t).
Give bare numbers, in ng·h/mL.

Take a look at these entries with their results.
| compound | AUC(0-t) / ng·h/mL |
| --- | --- |
| Cn1c2ccccc2n2c3nc(N4CCOCC4)c(F)cc3c(=O)c(C(=O)NCCN3CCCC3)c12 | 2000 |
| Cn1cncc1CNC(=O)c1c(=O)c2ccc(N3CCOCC3)nc2n2c1sc1ccccc12 | 2920 |

Here is another compound to look at.
Entry under test: O=C(NCCNC1CC1)c1c(=O)c2ccc(N3CCOCC3)nc2n2c1sc1ccccc12 [drawing 604] . Its AUC(0-t) was 5370

###

# System: a variety of cell types that are representative of different cancers
# test.description: Alamar Blue cell viability assay, variety of cell types representative of different cancers (Tables 12-14)
# Format: cell-based
# experimental.conditions: Homo sapiens, MV4-11, MV-4-11 cells, Table 14; read-out: AB: MV-4-11 (IC50)
observation.type: IC50

I'm hoping you can list IC50 for every molecule here, please.
1. CN1CCCN(c2nc3c(cc2F)c(=O)c(C(=O)N2CCOCC2)c2sc4ccccc4n23)CC1
2. CN1CCCN(c2nc3c(cc2F)c(=O)c(C(=O)NCc2ccncc2)c2sc4ccccc4n23)CC1
3. CN1CCCN(c2nc3c(cc2F)c(=O)c(C(=O)NCc2cccnc2)c2sc4ccccc4n23)CC1

output:
1: < 30 nM; 2: < 30 nM; 3: < 30 nM

###

# test.description: Cassette dosing oral pharmacokinetics in ICR mice
# Assay type: in vivo
# experimental.conditions: ICR (IcrTac:ICR), mouse; cassette oral dose 25 mg/kg, female ICR mice, plasma, 0-8 h, none in table
# Description: A cassette dosing procedure was utilized to determine pharmaceutical properties of compounds disclosed herein. In this procedure, compounds are selected for each cassette (i.e., cocktail) on the basis that mass spectrometric signals for each compound will not interfere with one another upon mass spectrometric analysis (e.g., will not overlap). The concentration of each compound in the dosing cassette often is about 20 mg/mL to achieve an oral dose level of 25 mg/kg in ICR mice. […]
observation.type: log10 AUC(0-t) (log10 of the value in ng·h/mL)
Log10 applied to AUC(0-t); unit prior to transform: ng·h/mL.

Consider the reported log10 AUC(0-t) for these molecules:
| molecule | observation.type | measured.number |
| --- | --- | --- |
| CN1CCCC1CCNC(=O)c1c(=O)c2cc(F)c(N3CCOCC3)nc2n2c3ccccc3n(C)c12 (centres unmarked) | log10 AUC(0-t) | 3.08 |
| Cn1ccnc1CNC(=O)c1c(=O)c2cc(N3CCOCC3)nnc2n2c1sc1ccccc12 | log10 AUC(0-t) | 3.58 |
| O=C(NCCN1CCC(O)C1)c1c(=O)c2cc(F)c(N3CCOCC3)nc2n2c1sc1ccccc12 (centres unmarked) | log10 AUC(0-t) | 3.04 |
| CN1CCC(N(C)C(=O)c2c(=O)c3cc(F)c(N4CCOCC4)nc3n3c2sc2ccccc23)C1 (centres unmarked) | log10 AUC(0-t) | 3.33 |
| CN1CCCC1CCNC(=O)c1c(=O)c2ccc(N3CCOCC3)nc2n2c1sc1ccccc12 (centres unmarked) | log10 AUC(0-t) | 3.41 |

State the recorded log10 AUC(0-t) for every item in the following list.
1. O=C(NCc1ccccn1)c1c(=O)c2cc(F)c(N3CCOCC3)nc2n2c1sc1ccccc12
2. O=C(NCC1CCCN1)c1c(=O)c2cc(F)c(N3CCOCC3)nc2n2c1sc1ccccc12 (centres unmarked)
3. Cc1cnc(CNC(=O)c2c(=O)c3ccc(N4CCN(C)CC4)nc3n3c2sc2ccccc23)cn1 [drawing 619]

output:
1: 4.96; 2: 3.02; 3: 5.22

###

# test.description: Cassette dosing oral pharmacokinetics in ICR mice
# Type: in vivo
# experimental.conditions: ICR (IcrTac:ICR), mouse; cassette oral dose 25 mg/kg, female ICR mice, plasma, 0-8 h, none in table
What AUC(0-t) was measured for each of the following?
Numbers only, in ng·h/mL.

Before answering, review these 5 worked examples.
| compound | measured.number |
| --- | --- |
| O=C(NCCNCCF)c1c(=O)c2ccc(N3CCOCC3)nc2n2c1sc1ccccc12 | 5020 |
| O=C(NCCn1ccnc1)c1c(=O)c2ccc(N3CCOCC3)nc2n2c1sc1ccccc12 | 4030 |
| O=C(NCCN1CC=CCC1)c1c(=O)c2ccc(N3CCOCC3)nc2n2c1sc1ccccc12 | 632 |
| O=C(NNC1=NCCN1)c1c(=O)c2cc(F)c(N3CCOCC3)nc2n2c1sc1ccccc12 | 2430 |
| CN1CCN(c2ccc3c(=O)c(C(=O)NC4CC4)c4n(C)c5ccccc5n4c3n2)CC1 | 5200 |

Required: AUC(0-t), one value per compound below.
1. O=C(NCCN1CCCC1)c1c(=O)c2cc(F)c(N3CCOCC3)nc2n2c1sc1ccccc12
2. CN1CCN(C(=O)c2c(=O)c3cc(F)c(N4CCOCC4)nc3n3c2sc2ccccc23)CC1
3. Cn1ccnc1CNC(=O)c1c(=O)c2ccc(N3CCOCC3)nc2n2c1sc1ccccc12
4. CN1CCCC(NC(=O)c2c(=O)c3cc(F)c(N4CCOCC4)nc3n3c2sc2ccccc23)C1 (stereo not drawn)
5. O=C(NCCN1CC=CC1)c1cn2c3c(c(N4CCC(c5cnccn5)C4)c(F)cc3c1=O)Oc1cc3ccccc3cc1-2 (stereo not drawn)
6. CN1CCN(c2ccc3c(=O)c(C(=O)NCc4ccccn4)c4sc5ccccc5n4c3n2)CC1
7. CN1CCCC1CCNC(=O)c1c(=O)c2cc(F)c(N3CCOCC3)nc2n2c1sc1ccccc12 (stereo not drawn)

output:
[2260, 6160, 5490, 1030, 8040, 51100, 3810]
